All values here come from paper PMC6804006.

Outcome measure: melting point

Observe how each entry below is paired with its result.
[[record]]
molecule = "CCOC(=O)CC[C@H](NC(=O)c1ccc(CNc2cc([N+](=O)[O-])ccc2C)cc1)C(=O)OCC [Compound 16]"
result_value = "127 to 129 °C"

[[record]]
molecule = "Cc1cn(-c2cc(NC(=O)c3ccc(CN4CCN(C(=O)c5ccccc5F)CC4)cc3)cc(C(F)(F)F)c2)cn1 [Compound 28j]"
result_value = "106 to 109 °C"

[[record]]
molecule = "Cc1cn(-c2cc(NCc3ccc(C(=O)Nc4cccc(C(F)(F)F)c4)cc3)cc(C(F)(F)F)c2)cn1 [Compound 13]"
result_value = "129 to 131 °C"


Here's the next entry for you.
## Task Find the recorded melting point belonging to Cc1ccc([N+](=O)[O-])cc1NCc1ccc(C(=O)Nc2cccc(C(F)(F)F)c2)cc1 [Compound 18] and report it.
## Result 169 to 171 °C

---

Molecular target: HER-4 (Homo sapiens, UniProt Q15303)
Construct: purchased Promega
Sequence (Q15303 26-1308): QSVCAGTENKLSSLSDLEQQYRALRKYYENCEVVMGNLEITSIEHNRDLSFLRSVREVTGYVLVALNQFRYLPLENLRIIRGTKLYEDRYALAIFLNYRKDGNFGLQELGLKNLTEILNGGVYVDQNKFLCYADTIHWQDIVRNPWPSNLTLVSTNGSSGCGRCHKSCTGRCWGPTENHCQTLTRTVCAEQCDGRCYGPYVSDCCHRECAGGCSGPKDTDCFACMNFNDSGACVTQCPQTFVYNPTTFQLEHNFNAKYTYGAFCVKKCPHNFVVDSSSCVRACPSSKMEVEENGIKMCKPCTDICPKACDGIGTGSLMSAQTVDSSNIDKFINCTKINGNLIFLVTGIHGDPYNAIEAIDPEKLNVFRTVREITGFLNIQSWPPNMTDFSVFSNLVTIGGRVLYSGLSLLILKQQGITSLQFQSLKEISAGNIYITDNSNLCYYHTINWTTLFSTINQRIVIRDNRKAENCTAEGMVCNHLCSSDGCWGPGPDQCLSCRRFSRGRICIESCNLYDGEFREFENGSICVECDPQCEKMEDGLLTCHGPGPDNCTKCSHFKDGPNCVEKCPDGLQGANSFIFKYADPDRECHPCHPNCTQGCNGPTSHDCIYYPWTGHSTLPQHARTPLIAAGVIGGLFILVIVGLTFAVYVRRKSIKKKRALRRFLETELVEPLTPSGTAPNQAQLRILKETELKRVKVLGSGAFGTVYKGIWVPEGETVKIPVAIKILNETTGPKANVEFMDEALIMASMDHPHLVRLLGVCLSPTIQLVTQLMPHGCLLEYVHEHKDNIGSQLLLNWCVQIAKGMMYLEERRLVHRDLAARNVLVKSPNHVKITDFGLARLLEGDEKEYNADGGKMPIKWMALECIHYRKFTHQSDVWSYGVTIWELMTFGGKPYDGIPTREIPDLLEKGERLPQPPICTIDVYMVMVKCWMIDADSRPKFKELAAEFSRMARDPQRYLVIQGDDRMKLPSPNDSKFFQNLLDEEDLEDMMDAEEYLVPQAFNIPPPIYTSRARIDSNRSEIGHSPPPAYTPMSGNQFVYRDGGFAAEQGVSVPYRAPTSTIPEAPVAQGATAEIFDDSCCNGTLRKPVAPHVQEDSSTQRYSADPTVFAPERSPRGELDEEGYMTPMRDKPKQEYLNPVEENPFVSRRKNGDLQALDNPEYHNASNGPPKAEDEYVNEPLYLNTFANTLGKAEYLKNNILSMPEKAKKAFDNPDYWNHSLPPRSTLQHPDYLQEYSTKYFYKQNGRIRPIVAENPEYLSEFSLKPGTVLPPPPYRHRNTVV
Assay: ADP-Glo kinase inhibitory assay, HER-4
Type: biochemical
Conditions: read-out: % Inhibition at 10 nM, HER-4
Below is a list of entries, each paired with its recorded inhibition at 0.01 µM value.
Respond numerically; units are % and should not be typed.

Below: 2 molecules and their reported inhibition at 0.01 µM.
[[record]]
structure_smiles_string = "Cc1cn(-c2cc(NCc3ccc(C(=O)Nc4cc([N+](=O)[O-])ccc4C)cc3)cc(C(F)(F)F)c2)cn1"
test_target = "HER-4 (Homo sapiens, UniProt Q15303)"
outcome_measure = "inhibition at 0.01 µM"
units_text = "%"
result_value = 0

[[record]]
structure_smiles_string = "Cc1ccc([N+](=O)[O-])cc1NCc1ccc(C(=O)Nc2cccc(C(F)(F)F)c2)cc1"
test_target = "HER-4 (Homo sapiens, UniProt Q15303)"
outcome_measure = "inhibition at 0.01 µM"
units_text = "%"
result_value = 56


Switching to the query record.
## Task Entry "CNC(=O)c1cc(Oc2ccc(NC(=O)c3ccc(CNc4cc([N+](=O)[O-])ccc4C)cc3)cc2)ccn1" : reported inhibition at 0.01 µM = ?
## Result 0
